This collection of values is drawn from patent US20210032365A1.

Molecular target: T1, human C1s (human, UniProt P09871 16-688)
T1 construct: also called hC1s; serum-derived human C1s (CompTech)
T1 sequence: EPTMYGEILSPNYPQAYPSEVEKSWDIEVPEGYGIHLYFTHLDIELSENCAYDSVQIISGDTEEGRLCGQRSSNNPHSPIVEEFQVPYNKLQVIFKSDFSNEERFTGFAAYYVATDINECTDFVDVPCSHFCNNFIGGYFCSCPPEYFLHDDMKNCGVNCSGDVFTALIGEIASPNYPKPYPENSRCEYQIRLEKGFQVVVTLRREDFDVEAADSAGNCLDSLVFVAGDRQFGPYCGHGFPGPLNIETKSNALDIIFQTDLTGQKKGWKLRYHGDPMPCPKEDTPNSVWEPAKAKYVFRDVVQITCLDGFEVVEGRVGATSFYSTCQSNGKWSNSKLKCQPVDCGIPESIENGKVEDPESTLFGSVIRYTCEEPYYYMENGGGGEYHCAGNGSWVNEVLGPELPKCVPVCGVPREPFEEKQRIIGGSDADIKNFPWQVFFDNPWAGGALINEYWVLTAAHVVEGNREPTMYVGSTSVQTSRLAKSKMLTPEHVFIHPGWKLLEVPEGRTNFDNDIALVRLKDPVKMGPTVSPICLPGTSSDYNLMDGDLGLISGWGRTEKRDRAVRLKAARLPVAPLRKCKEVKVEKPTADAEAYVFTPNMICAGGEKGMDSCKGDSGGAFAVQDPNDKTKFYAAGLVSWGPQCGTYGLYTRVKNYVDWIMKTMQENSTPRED
Assay: SPR, Ab captured; pH 5.8, 3 uM Ca
experimental-endpoint: kon (M⁻¹ s⁻¹)
Write it as a number; the unit M⁻¹ s⁻¹ goes unstated.

- binder: "C1_IPN92H0026-SG4GK/IPN93L0024-SK1 (antibody, human IgG4 S228P, kappa, name in Kabat numbering, V domains shown, also called IPN92H0026/IPN93L0024) VH: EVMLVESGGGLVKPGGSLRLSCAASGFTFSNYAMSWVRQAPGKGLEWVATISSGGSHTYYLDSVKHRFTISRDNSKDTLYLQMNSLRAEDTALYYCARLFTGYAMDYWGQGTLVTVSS VL: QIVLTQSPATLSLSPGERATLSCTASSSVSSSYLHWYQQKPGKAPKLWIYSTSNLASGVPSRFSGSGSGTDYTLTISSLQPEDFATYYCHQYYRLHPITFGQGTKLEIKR"
  kon (M⁻¹ s⁻¹): "7.43e+06"
- binder: "C1_IPN92H0038-SG4GK/IPN93L0029-SK1 (antibody, human IgG4 S228P, kappa, name in Kabat numbering, V domains shown, also called IPN92H0038/IPN93L0029) VH: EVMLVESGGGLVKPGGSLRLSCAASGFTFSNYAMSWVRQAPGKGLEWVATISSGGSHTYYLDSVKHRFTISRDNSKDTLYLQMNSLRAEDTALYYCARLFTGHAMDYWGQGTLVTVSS VL: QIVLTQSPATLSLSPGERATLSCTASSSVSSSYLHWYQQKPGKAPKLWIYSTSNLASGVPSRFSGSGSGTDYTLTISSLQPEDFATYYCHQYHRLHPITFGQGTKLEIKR"
  kon (M⁻¹ s⁻¹): 789000
- binder: "C1_IPN009VH2-SG4GK/IPN93L0028-SK1 (antibody, human IgG4 S228P, kappa, name in Kabat numbering, V domains shown, also called IPN009VH2/IPN93L0028) VH: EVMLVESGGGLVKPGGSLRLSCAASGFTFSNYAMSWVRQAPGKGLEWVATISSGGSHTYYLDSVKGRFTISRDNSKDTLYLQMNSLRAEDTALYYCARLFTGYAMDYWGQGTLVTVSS VL: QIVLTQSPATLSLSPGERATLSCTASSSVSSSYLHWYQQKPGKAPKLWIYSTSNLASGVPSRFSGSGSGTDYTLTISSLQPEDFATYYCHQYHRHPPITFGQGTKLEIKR"
  kon (M⁻¹ s⁻¹): 528000
- binder: "C1_IPN92H0038-SG4GK/IPN009VK3-SK1 (antibody, human IgG4 S228P, kappa, name in Kabat numbering, V domains shown, also called IPN92H0038/IPN009VK3) VH: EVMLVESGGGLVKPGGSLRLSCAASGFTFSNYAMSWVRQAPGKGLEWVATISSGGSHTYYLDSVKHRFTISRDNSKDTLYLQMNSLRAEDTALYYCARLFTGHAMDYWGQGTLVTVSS VL: QIVLTQSPATLSLSPGERATLSCTASSSVSSSYLHWYQQKPGKAPKLWIYSTSNLASGVPSRFSGSGSGTDYTLTISSLQPEDFATYYCHQYYRLPPITFGQGTKLEIKR"
  kon (M⁻¹ s⁻¹): 646000

Pending binder:
Field request: kon | item: C1_IPN92H0033-SG4GK/IPN93L0031-SK1 (antibody, human IgG4 S228P, kappa, name in Kabat numbering, V domains shown, also called IPN92H0033/IPN93L0031) VH: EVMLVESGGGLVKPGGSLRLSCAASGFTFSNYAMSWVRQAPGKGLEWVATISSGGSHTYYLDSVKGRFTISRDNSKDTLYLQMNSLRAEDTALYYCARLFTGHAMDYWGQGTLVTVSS VL: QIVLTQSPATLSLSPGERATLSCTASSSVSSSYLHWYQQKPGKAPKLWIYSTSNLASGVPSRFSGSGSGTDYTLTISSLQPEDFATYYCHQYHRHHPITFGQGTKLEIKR
674000
